tested on: Leishmania donovani; test: Leishmania intramacrophage assay; format: functional, organism-based; parameters: scale not given: in the data most compounds retested in dose-response had high values; conditions: 30.3 µM; […]
In all, about 69,000 compounds went through this assay and about 1,000 (1.4%) showed an effect of 50% or more. This is one part of a sample in which strong results are shown more often than they occur.
Threshold check on Percent Effect: at or above 20% gives 1, strictly below gives 0.

Example results:
O=C1NCC(C(=O)N(Cc2cccc(Br)c2)C2CC2)N1 (centres undefined): 0
CC1(C)CC(=O)c2cnc3nc(N4CCCCC4)nc(O)c3c2C1: 0
Cc1c(-c2ccccc2)nc2c(c(C)c(C)n2CCN(C)C)c1N: 1
Cc1c(C)n(Cc2ccccn2)c2nc3c(c(N)c12)CCCCC3: 1

INPUT: hey, is Percent Effect for this one >= 20%? O=C(CO)N1CCC(c2ccnc(Nc3cc(C(F)(F)F)ccn3)n2)C1 (centres undefined)
OUTPUT: 1

INPUT: Confirm if Percent Effect reported for the molecule COCC(=O)N1CC(c2ccnc(Nc3cc(C(F)(F)F)ccn3)n2)C1 is 20% or above.
OUTPUT: 1

INPUT: Hello, I need to know if CSCC1CCN(C(=O)c2ccccc2NCc2cccnc2)C1 (centres undefined) has measured Percent Effect not below 20%. Thanks!
OUTPUT: 0

INPUT: Record CCc1c(C)sc2c1c(N)nc(=O)n2CCCN(C)C ; criterion: Percent Effect no lower than 20%. Met?
OUTPUT: 1

INPUT: Reported Percent Effect reaches at least 20% for CC1(c2ccccc2)CCC(=O)N(CCN2CCCOC2=O)C1 (centres undefined) ?
OUTPUT: 0

---

tested on: Leishmania donovani; experiment: Leishmania intramacrophage assay; type: functional, organism-based; design: scale not given: in the data most compounds retested in dose-response had high values; settings: 30.3 µM; […]
Hit rate of the full screen: of about 69,000 compounds, about 1,000 (1.4%) showed an effect of 50% or more. This is one part of a sample in which strong results are shown more often than they occur.
Quantity Measured: Percent Effect
Mention the unit after the number when you answer.

CCOC[C@@H]1CC[C@H]2[C@H](CCN2S(=O)(=O)c2ccc(F)cc2)O1: 19.83%
CN(CCNC(=O)Nc1cnn(C)c1)Cc1ccc(F)cc1: -44.73%

INPUT: Answer with the recorded Percent Effect of CN(CCNC(=O)Nc1ccn(C)n1)Cc1ccc(F)cc1 only.
OUTPUT: -20.54%

INPUT: Identify the reported Percent Effect for the following entry. CN(CCNC(=O)Nc1nccs1)Cc1ccc(F)cc1
OUTPUT: 53.32%

---

test system: Leishmania donovani; assay: Leishmania intramacrophage assay; type: functional, organism-based; set-up: scale not given: in the data most compounds retested in dose-response had high values; conditions: 30.3 µM; […]
Screen size: about 69,000 compounds; about 1,000 (1.4%) showed an effect of 50% or more. The entries come from a sample that favours strong results as a whole.
Consider the following compounds and their measured Percent Effect readings.
The figure you give is taken to be in %; do not add the unit.

Worked cases, answers included:
CN(C(=O)c1ccc(OCC(F)F)nc1)c1ccc2c(c1)CCO2: 3.527
CC[C@H]1CN(C(=O)C2CC2)CC[C@H]1CC(=O)NCCN1CCOCC1: -123.3
Cc1nc(C(=O)N(C)CC2CCCO2)nn1-c1ccccc1C(C)C (stereo not given): 0.9975
CC(c1cccc(-c2ncccc2C#N)c1)N(C)C (stereo not given): 54.7
CCn1c(N)nc2cc(C(=O)N3Cc4ccccc4C3)cnc21: 1.909

Next item in the queue.
INPUT: Please indicate Percent Effect recorded for O=C(c1cscn1)N1CCc2ncnc(-c3ccncc3)c2CC1
OUTPUT: 15.49

---

Parameter: Percent Effect. Scope: all listed entries.
tested on: Leishmania donovani; test: Leishmania intramacrophage assay; format: functional, organism-based; set-up: scale not given: in the data most compounds retested in dose-response had high values; conditions: 30 µM; 30.03 µM
About 1,000 (1.4%) of roughly 69,000 compounds showed an effect of 50% or more. The list comes from a sample in which strong results are over-represented; it also holds close analogues and randomly drawn compounds.
Kindly answer with a numeric value in %, unit omitted.

Past entries and their recorded results:
Cc1ccc(S(=O)(=O)Nc2ccc(=O)n(C)c2)cc1: 54.33
O=C(Cc1ccsc1)N1C[C@@H]2CN(Cc3ccoc3)CCO[C@@H]2C1.O=C(O)C(F)(F)F: 9.64

INPUT: Give Percent Effect; test system Leishmania donovani; molecule CN(C)C(=O)COC1COC2(CCN(S(C)(=O)=O)CC2)C1 (stereo not drawn)
OUTPUT: 8.131

---

tested on: Leishmania donovani; assay: Leishmania intramacrophage assay; assay type: functional, organism-based; design: scale not given: in the data most compounds retested in dose-response had high values; conditions: 30.3 µM; […]
The campaign covered roughly 69,000 compounds. About 1,000 (1.4%) showed an effect of 50% or more. This excerpt belongs to a sample that is enriched for strong results.
Quantity Measured: Percent Effect (%)
Note: unit % is implicit; provide only the numeric part.

CCOc1ccccc1NC(=O)CN(C)Cc1ccccc1Cl: 52.93
CCc1nnc(CN(CC)C(=O)C2CC(=O)N(C3CCCC3)C2)o1 (stereo not drawn): -15.82
CC(=O)c1ccc(N2CCCC(CO)(Cc3ccccc3C)C2)nc1 (stereo not drawn): 44.66
Fc1cccc(N2CCc3ncnc(C4CC4)c3CC2)c1: 15.99
C[C@@H]1CN(Cc2ccoc2)C[C@]12CCN(CC(=O)N(C)C)C2=O.O=C(O)C(F)(F)F: 1.993
Cc1ccccc1CC1(CO)CCCN(c2ncncc2C(C)C)C1 (stereo not drawn): 60.98

INPUT: # lookup: Leishmania donovani Percent Effect, key = Cc1ccc(N2CCCC(NCc3ccc4c(c3)OCCO4)C2)nn1 (stereo not drawn)
OUTPUT: -12.27

INPUT: Name the value of Percent Effect reported for CC(=O)N[C@H]1CCN(c2nc(C)nc3c2c(C)nn3C)C1 when tested on Leishmania donovani.
OUTPUT: 15.16

INPUT: Provide measured Percent Effect on Leishmania donovani for Cc1cc(-c2cnc(C(C)C)nc2CN(C)C(=O)c2ccccn2)on1 please.
OUTPUT: 10.54

---

test system: Leishmania donovani; test: Leishmania intramacrophage assay; format: functional, organism-based; set-up: scale not given: in the data most compounds retested in dose-response had high values; conditions: 30.3 µM; […]
Among all 69,000 compounds or so, about 1,000 (1.4%) showed an effect of 50% or more. This is one part of a sample in which strong results are shown more often than they occur.
Label Not fulfilled if Percent Effect falls below 20%; label Fulfilled in every other case.

Consider the worked cases shown below.
Cc1cc(=O)c(C(=O)N(C)Cc2ccc(Cl)c(F)c2)c[nH]1: Fulfilled
CCNC(=O)[C@@H]1C[C@@H](NC(=O)c2cnc[nH]c2=O)CN1Cc1ccsc1: Fulfilled
COc1cccc(-c2noc(-c3ccc(NCCCO)nc3)n2)c1OC: Fulfilled
Cc1ccc(CN2C[C@@H]3CN(C(=O)c4cccn4C)C[C@@H]3C2)cc1.O=C(O)C(F)(F)F: Not fulfilled
Cc1nccc([C@H]2C[C@@H]3CCN(C(=O)c4c(C)noc4C)C[C@H]3O2)n1: Not fulfilled
CC(C)(CO)Nc1ccc(-c2nc(-c3ccccc3F)no2)cn1: Not fulfilled
COCCN(CC1CC1)c1nc(CCN)nc2ccccc12: Not fulfilled
NCCc1nc(N(Cc2cncs2)C2CC2)c2ccccc2n1: Not fulfilled

For the next question, use this molecule.
INPUT: Quick check, Percent Effect >= 20%? CCCn1nc(C)c(-c2cncn2CCN(C)C2CCCC2)c1C.Cl
OUTPUT: Fulfilled

---

tested on: Leishmania donovani; assay: Leishmania intramacrophage assay; format: functional, organism-based; parameters: scale not given: in the data most compounds retested in dose-response had high values; details: 30.3 µM; […]
The whole screen tested about 69,000 compounds, of which about 1,000 (1.4%) showed an effect of 50% or more. The list comes from a sample in which strong results are over-represented; it also holds close analogues and randomly drawn compounds.
Property: Percent Effect; scope: individual compounds
Supply the numeric figure in %, leaving out any unit text.

Fc1ccc2[nH]c(C3CCCN3CCCn3cccn3)nc2c1 (centres undefined): 2.015

INPUT: Provide Percent Effect, tested on Leishmania donovani, for CC(C)CN1CC2(CCN(C(=O)c3cn4cccnc4n3)CC2)CC1=O .
OUTPUT: -23.89

INPUT: Return reported Percent Effect for target or system Leishmania donovani, item CC1(c2ccccc2)CCCN(Cc2cncn2C2CC2)C1 (centres undefined) .
OUTPUT: 33.62

INPUT: Given CC(C)NC(=O)C1CN(Cc2ccc(F)cc2)CC12CCOCC2.O=C(O)C(F)(F)F (centres undefined) , report its Percent Effect on Leishmania donovani.
OUTPUT: 44.53

INPUT: For Leishmania donovani, give Percent Effect of the listed compound: CC(C)C(=O)N1CCC12CCCN(C(=O)c1ccccc1)C2 (centres undefined)
OUTPUT: 9.102

INPUT: Provide Percent Effect, recorded with Leishmania donovani, of O=C(O)C(F)(F)F.O=C(c1ccccc1)N1CCC[C@]2(C[C@@H](Oc3ncccc3F)CO2)C1
OUTPUT: -17.71

INPUT: Enter measured Percent Effect, system Leishmania donovani, for the compound shown: Cc1ncc2c(n1)CCCC2NC(=O)c1ccc(Cn2cccn2)cc1 (centres undefined)
OUTPUT: 26.01

INPUT: Under Leishmania donovani: report Percent Effect of CN1CC2(CCN(C(=O)c3cn4cccnc4n3)CC2)CC1=O .
OUTPUT: -9.039

INPUT: Provide the reported Percent Effect (system: Leishmania donovani) for CCN1CC2(CCC1=O)CCN(C(=O)c1cn3cccnc3n1)CC2
OUTPUT: 50.01

INPUT: Please report Percent Effect with Leishmania donovani for item COc1ccccc1CC(NC(=O)N1CCC[C@@H]1CO)C(C)C (some centres undefined) .
OUTPUT: 9.914

INPUT: // fetch Percent Effect; item: Cc1cnc(N2CCOCC3(CCN(c4ccccn4)C3)C2)nc1.O=C(O)C(F)(F)F.O=C(O)C(F)(F)F (centres undefined) ; system: Leishmania donovani
OUTPUT: -8.514

INPUT: Give the observed Percent Effect of Cc1cnc(C(=O)N2Cc3ncn(C)c3C(COCC(C)C)C2)cn1.O=C(O)C(F)(F)F (centres undefined) for Leishmania donovani.
OUTPUT: 30.84

INPUT: Report Percent Effect from Leishmania donovani testing of O=C(c1cccnc1)N1CCC2(CNS(=O)(=O)c3cnccc3O2)C1 (centres undefined)
OUTPUT: 9.418

INPUT: Provide Percent Effect, tested on Leishmania donovani, for COc1ncccc1C(=O)N1CC[C@]2(C[C@@H](Oc3cccnc3)CO2)C1.O=C(O)C(F)(F)F.O=C(O)C(F)(F)F .
OUTPUT: 31.08

INPUT: Report value: Percent Effect, system: Leishmania donovani, compound: CC1(c2ccccc2)CCCN(Cc2cncn2C2CCCC2)C1 (centres undefined)
OUTPUT: 95.34

INPUT: State the measured Percent Effect (Leishmania donovani) of CN(C)C(=O)CCNC(=O)Nc1sc2ccccc2c1Cl
OUTPUT: -8.505
